# TARGET_ENTITY: Adenosine receptor A1 (Homo sapiens) (UniProt P30542)
# Sequence (P30542 whole entry): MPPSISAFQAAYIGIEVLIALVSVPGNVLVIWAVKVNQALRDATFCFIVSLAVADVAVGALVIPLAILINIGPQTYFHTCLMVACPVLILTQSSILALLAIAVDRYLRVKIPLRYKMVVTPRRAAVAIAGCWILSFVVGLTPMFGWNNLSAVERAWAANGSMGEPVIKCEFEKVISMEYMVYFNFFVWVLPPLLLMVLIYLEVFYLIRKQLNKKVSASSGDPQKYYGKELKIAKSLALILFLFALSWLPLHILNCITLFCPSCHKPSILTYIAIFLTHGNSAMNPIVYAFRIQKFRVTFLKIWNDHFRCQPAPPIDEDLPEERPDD
# EXPERIMENT_SUMMARY: Inverse agonist activity at human adenosine A1 receptor expressed in CHO cells assessed as inhibition of cAMP accumulation at 10 uM measured after 150 mins in presence of [3H]cAMP by scintillation counting method relative to control
# Format: functional, cell-based
Parameter inhibition: see the listing below.
PARAMETER: inhibition (%)

                               input_smiles  unit_descriptor  test_value
0    COc1ccccc1CNc1nc(N)c2nc(-c3ccco3)sc2n1                %         106
1  Nc1nc(NCCc2ccc(O)cc2)nc2sc(-c3ccco3)nc12                %         102
2     Nc1nc(NCCc2ccccc2)nc2sc(-c3ccco3)nc12                %         105
